- experiment_description: qHTS Validation assay for Inhibitors of Plasmodium falciparum Dd2 growth in vitro; also: nearly all actives have a fitted effect of over 70% in size
- conditions: P. falciparum Dd2 in RBCs, SYBR Green growth, 72 h; series mostly up to 28.7 µM
Hit rate of the full screen: of about 4,100 compounds, about 1,600 (39%) were called active. Not shown: some 25% with an inconclusive outcome. Calls follow the shape of the dose curve; as a rule, active = well fitted inhibition curve with a large enough effect; inconclusive = small, poorly fitted or top-dose-only effect; inactive = no such curve, though single readings can be large or run the other way. The list shows a part of the results.
API: response.call in active, inactive

Field: example entries. Status: answers known.
compound	discrete_label
COc1ccc(NC(=O)c2nnn(Cc3ccccc3C)c2N)c(OC)c1	inactive
Cc1noc(C)c1-c1cc2c(cc(-c3ccccc3)n2C)c(-c2ccnn2C)n1	active
COc1cc(OC)cc(-c2cc3nc4c(c(N5CCN(c6ncccn6)CC5)n3n2)CCCC4)c1	active

# lookup: test call for COc1ccc(N=C2NC(=O)/C(=C\c3ccco3)S2)cc1 inactive

Please answer likewise for COc1ccc(CN2C(=O)COC[C@@H]2[C@H](O)c2ccc(NC(=O)c3ccc(C(C)(C)C)cc3)cc2)cc1 active

Please answer likewise for O=C(c1ccccc1F)N1CCC(Oc2ncccc2C(=O)N2CCCCC2)C1 (stereo unspecified) inactive
